Measured F' BAFF by item
Target: human BAFF (human, UniProt Q9Y275 82-285, limits assumed)
Sequence (Q9Y275 82-285 limits assumed): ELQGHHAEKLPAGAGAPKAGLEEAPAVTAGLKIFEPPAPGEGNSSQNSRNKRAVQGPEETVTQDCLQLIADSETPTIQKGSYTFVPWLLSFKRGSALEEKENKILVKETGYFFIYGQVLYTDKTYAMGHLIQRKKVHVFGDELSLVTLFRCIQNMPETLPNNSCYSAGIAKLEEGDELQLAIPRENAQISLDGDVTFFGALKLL
Assay: NNS library, phage display;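 further: ligand versus display occurrence-to-degeneracy ratio and higher means enriched by binding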
# respond with the number and nothing more

Solved entries:
SLSCRKEQGKFRDHLLRDCISCASICGQHPKQCAYFCENKLR (receptor, phage library variant, format as m9) [TACI_d2 Y79R] :: 0
SLSCRKEQGKFYDHLLRDCISCASPCGQHPKQCAYFCENKLR (receptor, phage library variant, format as m9) [TACI_d2 I92P] :: 0
SLSCRKEQGKFYDHLLWDCISCASICGQHPKQCAYFCENKLR (receptor, phage library variant, format as m9) [TACI_d2 R84W] :: 0

Problem: Specify reported F' BAFF for the binder shown: SLSCRKEQGKMYDHLLRDCISCASICGQHPKQCAYFCENKLR (receptor, phage library variant, format as m9) [TACI_d2 F78M]
Result: 1

Problem: // Input: SLSCRKEQGKFIDHLLRDCISCASICGQHPKQCAYFCENKLR (receptor, phage library variant, format as m9) [TACI_d2 Y79I] . Output its F' BAFF only.
Result: 6

Problem: Read the entry SLSCRKEQGKFYDHLLRDCISCASQCGQHPKQCAYFCENKLR (receptor, phage library variant, format as m9) [TACI_d2 I92Q] and write its reported F' BAFF.
Result: 0
